- Target of assay: recombinant human Meningioma Expressed Antigen 5 (MGEA5), also referred to as O-GlcNAcase (OGA) (Homo sapiens, UniProt O60502)
- Construct: Full length OGA enzyme was purchased at OnGene (cat #TP322411); purchased OnGene (so in the source)
- Sequence (O60502 1-916): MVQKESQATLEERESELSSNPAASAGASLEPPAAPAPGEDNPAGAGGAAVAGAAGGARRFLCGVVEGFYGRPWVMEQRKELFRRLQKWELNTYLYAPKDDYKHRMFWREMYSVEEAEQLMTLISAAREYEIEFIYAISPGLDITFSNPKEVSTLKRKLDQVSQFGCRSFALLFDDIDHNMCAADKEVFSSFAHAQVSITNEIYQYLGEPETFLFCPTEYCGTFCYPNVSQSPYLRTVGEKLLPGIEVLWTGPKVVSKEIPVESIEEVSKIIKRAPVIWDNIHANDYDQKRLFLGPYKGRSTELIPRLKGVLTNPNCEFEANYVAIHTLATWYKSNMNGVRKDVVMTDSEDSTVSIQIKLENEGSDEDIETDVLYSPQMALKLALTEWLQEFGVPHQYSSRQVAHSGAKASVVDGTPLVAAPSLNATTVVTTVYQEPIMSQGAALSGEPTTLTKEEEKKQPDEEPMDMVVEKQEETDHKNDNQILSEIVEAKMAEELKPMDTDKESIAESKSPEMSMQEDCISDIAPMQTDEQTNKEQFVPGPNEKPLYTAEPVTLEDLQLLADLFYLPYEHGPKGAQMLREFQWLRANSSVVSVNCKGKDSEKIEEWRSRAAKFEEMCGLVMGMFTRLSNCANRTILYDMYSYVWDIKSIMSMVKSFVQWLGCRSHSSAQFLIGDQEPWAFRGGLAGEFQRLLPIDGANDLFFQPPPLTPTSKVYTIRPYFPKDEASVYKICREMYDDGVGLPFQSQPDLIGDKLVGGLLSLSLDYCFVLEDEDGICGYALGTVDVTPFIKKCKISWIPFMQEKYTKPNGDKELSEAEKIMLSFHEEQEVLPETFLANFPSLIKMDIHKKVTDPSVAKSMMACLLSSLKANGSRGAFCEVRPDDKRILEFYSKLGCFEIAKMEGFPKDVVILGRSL
- Experimental protocol: OGA biochemical assay: inhibition of hydrolysis of fluorescein mono-ß-D-N-Acetyl-Glucosamine (FM-GlcNAc), fluorescence readout
- Protocol conditions: FM-GlcNAc substrate, read-out: Enzymatic Emax (%)
Quantity measured: Emax (%)
Report only the number, with the unit % understood.

Lookup result for Clc1cccc(Cl)c1Nc1nccc2c1ccn2Cc1ncc[nH]1 ; measured Emax: 98.8

Recorded result, CCCCn1ccc2c(Nc3c(C)cc(CF)cc3C)nccc21 , Emax: 103

So, Cc1ccnc(C)c1Nc1nccc2c1ccn2CC1CC(F)(F)C1 ? Its Emax was 103

Briefly, Emax measured for Cc1cc(C)c(Nc2nccc3c2ccn3CC(C)(F)F)c(C)c1 : 98.8
